- MEASURED_ON: human 5-hydroxytryptamine-2C (h5-HT2C) receptor (Homo sapiens, UniProt P28335)
- Construct: expressed in transfected cells; host or cells: CHO (Chinese Hamster Ovary) cells; membranes
- EXPERIMENTAL_DETAILS: [125I]DOI binding to membranes of CHO cells expressing the human 5-HT2C receptor
- COND: [125I]DOI radioligand, CHO cell membranes, room temperature 60 min; read-out: 5-HT2C Affinity Ki
pKi: −log10 of the molar value.
Response key: 1.0 means pKi >= 9; 0.0 means pKi < 9.

Prompt: Identify whether the reported pKi of the following molecule is 9 or greater: NCC1Cc2cccc(Cc3ccccc3)c2O1 (single isomer, unassigned; (+)) [Example 16]
Response: 0.0

Prompt: Proceed to NCC1Cc2c(F)ccc(-c3ccccc3)c2O1 (racemic) [Example 98]
Response: 0.0

Prompt: Moving on to the next molecule: NCC1Cc2cc(Cl)cc(-c3ccc(Cl)cc3Cl)c2O1 (racemic) [Example 251]
Response: 1.0

Prompt: NCC1Cc2cc(F)cc(-c3ccccc3Cl)c2O1 (racemic) [Example 100] ?
Response: 1.0

Prompt: Follow-up entry: CNCC1Cc2cc(OC)cc(-c3ccccc3Cl)c2O1 (racemic) [Example 492]
Response: 0.0

Prompt: Now give it for Cc1cccc(-c2cc(C(F)(F)F)cc3c2OC(CN)C3)c1C (racemic) [Example 328] too.
Response: 0.0

Prompt: Would you mind doing COc1ccc(-c2cccc3c2OC(CN)C3)c(OC)c1 (single isomer, unassigned; (+)) [Example 145] as well?
Response: 0.0

Prompt: Consider next the molecule NCC1Cc2cccc(C3CCCC3)c2O1 (single isomer, unassigned; (-)) [Example 9] in the same way.
Response: 0.0

Prompt: Consider next the molecule NCC1Cc2cccc(-c3cccc(F)c3)c2O1 (single isomer, unassigned; (-)) [Example 132] in the same way.
Response: 0.0

Prompt: Entry to check: Cc1cccc(C)c1-c1cc(Cl)cc2c1OC(CN)C2 (single isomer, unassigned; (-)) [Example 261]
Response: 1.0

Prompt: Another molecule: CNCC1Cc2cc(C(F)(F)F)cc(-c3ccc(F)c(Cl)c3)c2O1 (racemic) [Example 525]
Response: 0.0

Prompt: What do you get for NCC1Cc2cccc(-c3ccccc3Cl)c2O1 (single isomer, unassigned; (+)) [Example 130] ?
Response: 0.0

Prompt: Also NCC1Cc2ccc(Cl)c(-c3ccccc3Cl)c2O1 (racemic) [Example 400] ?
Response: 1.0

Prompt: Try Cc1cc2c(c(-c3ccccc3)c1)OC(CN)C2 (racemic) [Example 281] next.
Response: 0.0

====

- MEASURED_ON: human 5-hydroxytryptamine-2C (h5-HT2C) receptor (Homo sapiens)
- Construct: expressed in transfected cells; host or cells: CHO (Chinese Hamster Ovary) cells; membranes
- Sequence (P28335 33-458): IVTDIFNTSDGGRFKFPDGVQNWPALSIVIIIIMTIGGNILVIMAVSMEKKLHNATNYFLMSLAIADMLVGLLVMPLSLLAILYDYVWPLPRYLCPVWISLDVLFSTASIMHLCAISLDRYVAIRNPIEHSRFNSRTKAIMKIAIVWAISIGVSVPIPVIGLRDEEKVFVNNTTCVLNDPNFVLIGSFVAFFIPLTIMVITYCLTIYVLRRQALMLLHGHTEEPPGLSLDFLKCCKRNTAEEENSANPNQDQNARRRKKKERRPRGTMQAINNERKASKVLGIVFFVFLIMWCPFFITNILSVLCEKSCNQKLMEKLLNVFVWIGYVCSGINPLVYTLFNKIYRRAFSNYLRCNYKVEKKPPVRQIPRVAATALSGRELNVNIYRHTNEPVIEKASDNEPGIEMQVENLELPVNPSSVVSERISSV
- EXPERIMENTAL_DETAILS: [125I]DOI binding to membranes of CHO cells expressing the human 5-HT2C receptor
- COND: [125I]DOI radioligand, CHO cell membranes, room temperature 60 min; read-out: 5-HT2C Affinity Ki
Please respond with reported pKi for every item in the list.
pKi (log units): -log10 of the concentration in mol/L.

Prompt: Enter reported pKi observed with human 5-hydroxytryptamine-2C (h5-HT2C) receptor (Homo sapiens) for Cc1cc2c(c(-c3cc(Cl)ccc3Cl)c1)OC(CN)C2 (racemic) [Example 300]
Response: 10.00

Prompt: Next up: COc1cc2c(c(-c3cc(Cl)ccc3Cl)c1)OC(CN)C2 (racemic) [Example 367]
Response: 9.68

Prompt: Please give the result for Cc1cc2c(c(-c3ccccc3C(F)(F)F)c1)OC(CN)C2 (racemic) [Example 287] too.
Response: 9.89

Prompt: Same thing, different compound: COc1cc2c(c(-c3cc(Cl)ccc3OC)c1)OC(CN)C2 (racemic) [Example 372]
Response: 7.64

Prompt: // next record COc1ccc(C)c(-c2cc(F)cc3c2OC(CN)C3)c1 (racemic) [Example 224]
Response: 7.74

Prompt: Also NCC1Cc2cccc(-c3ccc(Cl)cc3Cl)c2O1 (single isomer, unassigned; (-)) [Example 149] ?
Response: 9.82

Prompt: Next: NCC1Cc2cccc(-c3c(Cl)cc(Cl)cc3Cl)c2O1 (racemic) [Example 166]
Response: 8.10

Prompt: Consider next the compound NCC1Cc2cc(F)cc(-c3ccccc3C(F)(F)F)c2O1 (single isomer, unassigned; (-)) [Example 151] in the same way.
Response: 8.96

Prompt: Further, for NCC1Cc2cc(C(F)(F)F)cc(-c3ccccc3C(F)(F)F)c2O1 (racemic) [Example 317] ?
Response: 7.08

Prompt: Same question, CNCC1Cc2cccc(-c3ccccc3F)c2O1 (racemic) [Example 412] this time
Response: 8.28

Prompt: Moving on to NCC1Cc2cc(C(F)(F)F)cc(-c3ccc(F)c(Cl)c3)c2O1 (racemic) [Example 335]
Response: 6.72

Prompt: Try CNCC1Cc2cc(-c3ccccc3)cc(-c3ccc(OC)cc3)c2O1 (racemic) [Example 516] next.
Response: 5.80

Prompt: Would you kindly repeat that for CNCC1Cc2cc(C(F)(F)F)cc(-c3ccccc3)c2O1 (racemic) [Example 518] ?
Response: 7.40

Prompt: Next record, please: CNCC1Cc2cc(OC)cc(-c3cc(Cl)ccc3OC)c2O1 (racemic) [Example 502]
Response: 7.22

Prompt: And for Cc1ccc(-c2cc(C(F)(F)F)cc3c2OC(CN)C3)cc1 (racemic) [Example 323] ?
Response: 6.79

Prompt: Also, NCC1Cc2cccc(Nc3cccc(OC(F)(F)F)c3)c2O1 (racemic) [Example 187] please.
Response: 6.61

Prompt: Same for NCC1Cc2cc(-c3ccc(Cl)cc3)cc(F)c2O1 (racemic) [Example 386]
Response: 5.99
